# measurement_protocol: Pharmacokinetic study in rats
# Format: in vivo
# recorded_conditions: rat, plasma; Sprague-Dawley rats, intravenous, 2 mg/kg, solution
quantity_name: AUC (µg·h/mL)

compound	quantity_name	units_label	recorded_number
[2H]C([2H])([2H])NC(=O)c1cnc(NC(=O)C2CC2)cc1Nc1nn(C)c2ccc([C@H](O)C(F)(F)F)c(OC)c12 [Example 49A]	AUC	µg·h/mL	0.904

* * *

# assayed_target: TYK2-JH2 domain (Homo sapiens, UniProt P29597)
# Construct: JAK1-JH2 domain or TYK2-JH2 domain enzyme in assay buffer
# Sequence (P29597 589-875 limits assumed): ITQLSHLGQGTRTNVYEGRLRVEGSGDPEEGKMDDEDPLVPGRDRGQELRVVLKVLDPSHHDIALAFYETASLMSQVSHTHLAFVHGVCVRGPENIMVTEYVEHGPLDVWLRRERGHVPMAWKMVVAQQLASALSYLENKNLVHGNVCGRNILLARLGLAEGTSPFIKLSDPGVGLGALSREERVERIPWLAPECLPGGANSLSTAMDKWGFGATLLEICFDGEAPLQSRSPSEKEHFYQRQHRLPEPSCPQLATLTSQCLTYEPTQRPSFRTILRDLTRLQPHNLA
# measurement_protocol: Binding activity test for JH2 domain of TYK2 (Tb-antibody/tracer FRET)
# recorded_conditions: JH2 domain enzyme; 60 min at 25°C, then 4°C overnight; read-out: TYK2 JH2 Binding IC50
Lab note: anything with IC50 below 1 nM is marked label 1; values at 1 nM or higher are marked label 0.

compound	assigned_class
[2H]C([2H])([2H])NC(=O)c1cnc(NC(=O)C2CC2)cc1Nc1cnn2ccc(C(C)O)c(OC)c12 (stereo not shown) [Example 23]	label 1
COCOc1cnc(NC(=O)C2CC2)cc1Nc1cnn2ccc([C@H](OC)C(F)(F)F)c(OC)c12 [Example 94]	label 0
COC(=O)c1cnc(NC(=O)C2CC2)cc1Nc1nn(C)c2ccc(C(OC)C(C)(F)F)c(OC)c12 (single isomer, unassigned) [Example 115B]	label 0
[2H]C([2H])([2H])CC(=O)c1cnc(NC(=O)C2CC2)cc1Nc1nn(C)c2ccc(C(OC)C(F)(F)F)c(OC)c12 (single isomer, unassigned) [Example 65B]	label 1
CCn1nc(Nc2cc(NC(=O)C3CC3)ncc2C(=O)OC)c2c(OC)c(C(O)C(F)(F)F)ccc21 (single isomer, unassigned) [Example 70A]	label 1
CCC(=O)c1cnc(NC(=O)C2CC2)cc1Nc1nn(C)c2ccc([C@H](O)C(F)(F)F)c(OC)c12 [Example 140]	label 1
COc1c(Nc2cc(NC(=O)C3CC3)ncc2C(C)(F)F)cccc1-c1cnn(C)n1 [Example 168]	label 1
[2H]C([2H])([2H])NC(=O)c1cnc(NC(=O)C2CC2)cc1Nc1cnn2ccc(C(O)C(F)(F)F)cc12 (stereo not shown) [Example 41]	label 0
[2H]C([2H])([2H])O[C@@H](c1ccc2c(c(Nc3cc(NC(=O)C4CC4)ncc3C(=O)OC)nn2C)c1OC)C(F)(F)F [Example 50B]	label 1
COC(=O)c1cnc(NC(=O)C2CC2)cc1Nc1csc2ccc(C(OC)C(F)(F)F)c(OC)c12 (stereo not shown) [Example 111]	label 1
COC(=O)c1cnc(NC(=O)C2CC2)cc1Nc1nsc2ccc(C(OC)C(F)(F)F)c(OC)c12 (single isomer, unassigned) [Example 67A]	label 1
[2H]C([2H])([2H])NC(=O)c1nnc(NC(=O)C2CC23CC3)cc1Nc1cnn2ccc([C@H](O)C(F)(F)F)c(OC)c12 (single isomer, unassigned) [Example 82A]	label 1
COC(=O)c1cnc(NC(=O)C2CC2)cc1Nc1nn(C)c2cccc(OC)c12 [Example 146]	label 0
